Tested on: EKVX
EXPERIMENTAL PROTOCOL: NCI tumour cell line growth inhibition, 48 h
Active and inactive are the calls of the source. Cut-off read from the data, not from the text of the source: active = GI50 up to about 1.1 µM and inactive = higher.
Possible outcomes: true (1) for active, false (0) for inactive

COMPOUND: COc1cc2c(cc1OC)-c1[nH]c3ccc(C#N)cc3c1CC(=O)N2
SYSTEM UNDER TEST: EKVX
LABEL CLASS: false (0)
//
COMPOUND: CO/C(=N\N=C\c1cccc(C(F)(F)F)c1)c1ccncc1
SYSTEM UNDER TEST: EKVX
LABEL CLASS: false (0)
//
COMPOUND: CC(=O)O[C@H]1C(=O)[C@@]2(C)C([C@H](OC(=O)c3ccccc3)[C@]3(O)C[C@H](OC(=O)[C@H](O)[C@H](NC(=O)c4ccccc4)c4ccc(Cl)cc4)C(C)=C1C3(C)C)C1(OC(C)=O)CO[C@@H]1C[C@@H]2O (some centres undefined)
SYSTEM UNDER TEST: EKVX
LABEL CLASS: true (1)
//
COMPOUND: CCOC(=O)CCC(NC(=O)c1ccc(Nc2nc3ccccc3nc2C(=O)OCC)s1)C(=O)OCC (centres undefined)
SYSTEM UNDER TEST: EKVX
LABEL CLASS: false (0)
//
COMPOUND: CC1(C(=O)O)CCCC1C(=O)O (centres undefined)
SYSTEM UNDER TEST: EKVX
LABEL CLASS: false (0)
//
COMPOUND: Cc1nn(C(=O)c2ccc(Cl)cc2)c2c1C(c1ccc([N+](=O)[O-])cc1)SC(=N)N2 (centres undefined)
SYSTEM UNDER TEST: EKVX
LABEL CLASS: false (0)
//
COMPOUND: Cc1cc(C)c2c(O)cc(-c3ccc(Cl)cc3)nc2n1
SYSTEM UNDER TEST: EKVX
LABEL CLASS: false (0)
//
COMPOUND: CCC(C)CN1C(=O)NC(Cc2ccccc2)C1=O (centres undefined)
SYSTEM UNDER TEST: EKVX
LABEL CLASS: false (0)
//
COMPOUND: CCCCc1ccc(Nc2nc(N)c3ncn(COCCO)c3n2)cc1
SYSTEM UNDER TEST: EKVX
LABEL CLASS: false (0)

Source of measurements: ChEMBL document CHEMBL1201862
